- Protocol Description: Selectivity ratio of Ki for rat mu opioid receptor to Ki for human ORL1 receptor
Rule: Ratio Ki below 1 gives True. Equal to or above 1 gives False.

Compound | Class Name
Cc1ccc2nc(/C=C/c3ccc(Cl)cc3)nc(NCCN)c2c1 | True
Cc1cccc2nc(/C=C/c3ccc(Cl)cc3)nc(NCCCCCCN)c12 | True
Cc1ccc2nc(/C=C/c3ccc(Cl)cc3)nc(NCCCCN)c2c1 | False
Cc1ccc2nc(/C=C/c3ccc(Cl)cc3)nc(N[C@H]3CCCC[C@@H]3N)c2c1 (racemic) | True
NCCCCCCNc1nc(/C=C/c2ccc(Cl)cc2)nc2ccccc12 | True
Cc1ccc2nc(/C=C/c3ccc(Cl)cc3)nc(N[C@H]3CCCC[C@H]3N)c2c1 (racemic) | True

QUERY: Determine whether this compound shows Ratio Ki lower than 1 (ties excluded): Cc1ccc2c(NCCCCCCN)nc(/C=C/c3ccc(Cl)cc3)nc2c1
RESULT: True

QUERY: Determine whether this compound shows Ratio Ki lower than 1 (ties excluded): NCCCCCCNc1nc(/C=C/c2ccc(Cl)cc2)nc2ccc(Cl)cc12
RESULT: False

QUERY: Determine whether this compound shows Ratio Ki lower than 1 (ties excluded): Cc1ccc2nc(/C=C/c3ccc(Cl)cc3)nc(NCCCCNC(=N)N)c2c1
RESULT: False

QUERY: Determine whether this compound shows Ratio Ki lower than 1 (ties excluded): Cc1cccc2c(NCCCCCCN)nc(/C=C/c3ccc(Cl)cc3)nc12
RESULT: False

QUERY: Determine whether this compound shows Ratio Ki lower than 1 (ties excluded): Cc1ccc2nc(/C=C/c3ccc(Cl)cc3)nc(N[C@H]3CC[C@H](N)CC3)c2c1
RESULT: True

====

- Target System: Kappa-type opioid receptor (Rattus norvegicus, UniProt P34975)
- Sequence (P34975 whole entry): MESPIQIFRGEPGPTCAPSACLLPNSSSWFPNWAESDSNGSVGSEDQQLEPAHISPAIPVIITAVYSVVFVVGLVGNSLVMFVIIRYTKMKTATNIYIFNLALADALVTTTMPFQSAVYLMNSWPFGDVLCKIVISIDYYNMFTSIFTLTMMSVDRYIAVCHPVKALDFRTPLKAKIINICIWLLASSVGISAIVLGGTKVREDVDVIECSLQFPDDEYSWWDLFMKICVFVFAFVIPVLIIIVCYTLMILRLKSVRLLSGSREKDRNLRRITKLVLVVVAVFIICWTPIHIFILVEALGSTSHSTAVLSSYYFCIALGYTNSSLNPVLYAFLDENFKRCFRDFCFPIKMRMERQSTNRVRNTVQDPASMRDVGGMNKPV
Measured Property: Ki (nM)
Write the answer as a number in nM, unit excluded.

Compound | Ki [nM]
Cc1ccc2nc(NC(=O)c3ccc(Cl)cc3)nc(N[C@H]3CCCC[C@H]3NC(=N)N)c2c1 (single isomer, unassigned) | 510

# next compound below
Record Cc1ccc2nc(NC(=O)c3ccc(Cl)cc3)nc(N[C@@H]3CCCC[C@@H]3NC(=N)N)c2c1 (single isomer, unassigned) / Kappa-type opioid receptor (Rattus norvegicus, UniProt P34975), Ki recorded as 2400

====

- Protocol Description: Selectivity ratio of Ki for rat mu opioid receptor to Ki for human ORL1 receptor
Measured Property: Ratio Ki
Please reply with the value in numeric form only.

Below: 6 compounds and their reported Ratio Ki.
Compound | Measured Property | Observed Measurement
Cc1ccc2nc(/C=C/c3ccc(Cl)cc3)nc(N[C@H]3CCCC[C@H]3NC(=N)N)c2c1 (racemic) | Ratio Ki | 5.11
Cc1ccc2nc(/C=C/c3ccc(Cl)cc3)nc(N[C@H]3CC[C@@H](N)CC3)c2c1 | Ratio Ki | 2.53
CC(C)(C)c1ccc2nc(/C=C/c3ccc(Cl)cc3)nc(NCCCCCCN)c2c1 | Ratio Ki | 1.3
Cc1ccc2nc(/C=C/c3ccc(Cl)cc3)nc(NCCCCCCNC(=N)N)c2c1 | Ratio Ki | 3.37
NCCCCCCNc1nc(/C=C/c2ccc(Cl)cc2)nc2cc3ccccc3cc12 | Ratio Ki | 3.08
Cc1ccc2nc(/C=C/c3ccc(Cl)cc3)nc(N[C@H]3CC[C@@H](NC(=N)N)CC3)c2c1 | Ratio Ki | 0.39

# next compound below
Form: compound = Cc1ccc2nc(/C=C/c3ccc(Cl)cc3)nc(NCCCCCCN)c2c1 ; Ratio Ki = 0.51
